In this section, each of the compounds is paired with its reported % control, VEGFR2 (DiscoverX).
biological target: VEGFR2 (Homo sapiens); construct: purchased DiscoverX (KINOMEscan service); host or cells: E. coli BL21-derived host (T7 phage) or HEK-293; test: DiscoverX KINOMEscan competition binding assay; conditions: compound 10 µM; lower values = higher affinity; below 35% = significant binding
Numbers only; they are read as % control.

[
  {
    "GIVEN_SMILES": "Cc1ccc(-n2cnnn2)cc1NC(=O)NCC1CC1",
    "% control, VEGFR2 (DiscoverX) / % control": 100
  },
  {
    "GIVEN_SMILES": "O=C1C[C@@H](c2noc(-c3ccc[nH]c3=O)n2)CN1Cc1ccccc1",
    "% control, VEGFR2 (DiscoverX) / % control": 98
  },
  {
    "GIVEN_SMILES": "Cc1[nH]c2nc3c(c(=O)n(Cc4ccccc4)c(=O)n3C)n2c1C",
    "% control, VEGFR2 (DiscoverX) / % control": 100
  },
  {
    "GIVEN_SMILES": "Nc1nc(N2CCC[C@H](Cc3nc4ccccc4[nH]3)C2)c2nc[nH]c2n1",
    "% control, VEGFR2 (DiscoverX) / % control": 97
  }
]

Record request: % control, VEGFR2 (DiscoverX) value, item Cc1cccc(NC(=O)N[C@H](C)[C@H](C)N2CCOCC2)n1
100

---

Target: VEGFR2 (Homo sapiens, UniProt P35968)
Construct: purchased DiscoverX (KINOMEscan service); host or cells: E. coli BL21-derived host (T7 phage) or HEK-293
Sequence (P35968 20-1356): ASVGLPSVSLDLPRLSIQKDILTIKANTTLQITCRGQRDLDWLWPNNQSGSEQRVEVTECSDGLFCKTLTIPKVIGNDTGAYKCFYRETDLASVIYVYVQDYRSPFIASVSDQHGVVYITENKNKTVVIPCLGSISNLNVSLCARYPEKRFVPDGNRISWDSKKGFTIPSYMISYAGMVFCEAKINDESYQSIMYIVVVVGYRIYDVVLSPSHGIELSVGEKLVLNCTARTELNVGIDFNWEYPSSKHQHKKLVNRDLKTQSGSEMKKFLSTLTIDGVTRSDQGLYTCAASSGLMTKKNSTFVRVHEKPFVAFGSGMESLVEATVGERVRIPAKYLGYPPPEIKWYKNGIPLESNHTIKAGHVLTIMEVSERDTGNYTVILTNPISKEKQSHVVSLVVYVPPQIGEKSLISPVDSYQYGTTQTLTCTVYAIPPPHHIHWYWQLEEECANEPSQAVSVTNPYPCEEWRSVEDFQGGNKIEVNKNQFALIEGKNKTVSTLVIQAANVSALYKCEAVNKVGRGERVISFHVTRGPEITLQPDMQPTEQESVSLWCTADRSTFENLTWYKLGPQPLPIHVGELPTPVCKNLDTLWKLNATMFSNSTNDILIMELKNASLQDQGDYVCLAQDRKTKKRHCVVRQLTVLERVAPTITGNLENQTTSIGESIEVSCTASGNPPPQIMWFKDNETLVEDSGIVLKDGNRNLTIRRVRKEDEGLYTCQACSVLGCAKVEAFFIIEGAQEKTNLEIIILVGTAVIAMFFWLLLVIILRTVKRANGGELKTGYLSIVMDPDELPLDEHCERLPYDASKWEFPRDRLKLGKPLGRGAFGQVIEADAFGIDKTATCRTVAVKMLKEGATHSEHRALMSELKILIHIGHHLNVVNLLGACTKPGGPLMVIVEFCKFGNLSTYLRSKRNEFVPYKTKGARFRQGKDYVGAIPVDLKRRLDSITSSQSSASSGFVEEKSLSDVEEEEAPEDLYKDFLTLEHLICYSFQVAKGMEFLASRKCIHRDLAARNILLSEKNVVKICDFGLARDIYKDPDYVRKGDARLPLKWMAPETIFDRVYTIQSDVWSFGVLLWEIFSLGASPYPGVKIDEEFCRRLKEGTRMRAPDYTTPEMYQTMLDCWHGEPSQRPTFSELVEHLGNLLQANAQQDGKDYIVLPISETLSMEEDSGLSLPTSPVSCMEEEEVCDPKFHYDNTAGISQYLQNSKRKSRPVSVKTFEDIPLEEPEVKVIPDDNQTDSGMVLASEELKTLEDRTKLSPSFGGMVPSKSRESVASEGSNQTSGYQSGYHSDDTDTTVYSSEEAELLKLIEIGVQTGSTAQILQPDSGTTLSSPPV
Assay: DiscoverX KINOMEscan competition binding assay
Conditions: compound 10 µM; lower values = higher affinity; below 35% = significant binding
Procedure: Ligand binding experiments for the molecules selected from Profiles 1 and 2 towards nine kinases (EGFR, ErbB2, LCK, CDK2, BRAF, MET, p38α, PI3K and VEGFR2) and for molecules selected from Profiles 3 and 4 towards four kinases (EGFR, ErbB2, BRAF and VEGFR2) were carried out by DiscoverX using the supplied protocol as described in the Supplementary Materials. […]
MEASUREMENT_NAME: % control, VEGFR2 (DiscoverX) (% control)
Numbers only; they are read as % control.

Study these solved cases before continuing.
[
  {
    "COMPOUND": "CC(C)n1ccc(=O)nc1SC1CCN(c2ccccc2F)C1=O (stereo not drawn)",
    "TARGET_SYSTEM": "VEGFR2 (Homo sapiens, UniProt P35968)",
    "% control, VEGFR2 (DiscoverX), % control": 100
  },
  {
    "COMPOUND": "O=C(Oc1ccc2c3c(c(=O)oc2c1)CCC3)c1cccc(Cl)c1",
    "TARGET_SYSTEM": "VEGFR2 (Homo sapiens, UniProt P35968)",
    "% control, VEGFR2 (DiscoverX), % control": 100
  },
  {
    "COMPOUND": "COC(=O)Cc1ccc(Oc2ncnc3sc4c(c23)CC[C@@H](C)C4)cc1 (racemic)",
    "TARGET_SYSTEM": "VEGFR2 (Homo sapiens, UniProt P35968)",
    "% control, VEGFR2 (DiscoverX), % control": 99
  },
  {
    "COMPOUND": "CC(=O)c1cc(CC(=O)N(C)C[C@H]2CCCCO2)cs1",
    "TARGET_SYSTEM": "VEGFR2 (Homo sapiens, UniProt P35968)",
    "% control, VEGFR2 (DiscoverX), % control": 100
  },
  {
    "COMPOUND": "O=C(Cn1cnc2c(cnn2CCO)c1=O)NCc1ccccc1",
    "TARGET_SYSTEM": "VEGFR2 (Homo sapiens, UniProt P35968)",
    "% control, VEGFR2 (DiscoverX), % control": 100
  }
]

With those in mind, consider the next compound.
Short answer please: % control, VEGFR2 (DiscoverX), VEGFR2 (Homo sapiens, UniProt P35968), entry COc1ccc(-c2nn(C(C)=O)c3c2C(=O)CC(C)(C)C3)cc1
97
